- PROCEDURE SUMMARY: yeast display, Sf9 membrane polyspecificity reagent, FACS + sequencing; frameworks hold sequencing errors

{"columns": ["BIOSEQUENCE", "polyreactivity (PSR sort gate)"],
 "data": [
  ["QVQLQESGGGLVQAGGSLLSCAASGTISWVDEMGWYRQAPGNERELVAGIAGGGNTNYADSVKGRYTISRDNAKNTVYLQMNSLDTAVYYCAVVGFGRGTHIYWGQGTQVTVSS", "high polyreactivity"],
  ["QVQLVESGGGLVQAGGSLRLSCDASGRIFTTYAMGWYRQAPGKERELVARITWSAGRTYYADSVKGRFTISRDNAKNTVYLQMNSLKPEDTAVYYCAADGGISAGANSGYDYWGQGTQVTVSS", "high polyreactivity"],
  ["QVQLVESGLGLVQAGVSLRLSCAATGLTFVYYAMGWYRPAHGKERELVAAIDWSGGTTYYADSVKGRFTISRDHAKNTVYLQMNSLKPEDTAVYYCAADVVEEDDLEFYYWGQGTQVTVSS", "high polyreactivity"],
  ["QVQLVESGGGLVQAGGSLRLSCAASGSTFYIYAMGWYRQAPGKERELVARISGSRGSTYYADSVKGRFTISRDNAKNTVYLQMNSLKPEDTAVYYCAADDIYKYYQYYALPSYRYDYWGQGTQVTVSS", "low polyreactivity"],
  ["QVQLVESGGGLVQAGGSLLLSCAASGYTFKSYVMGWYRQAPGKERELVAAITSIGGSTYYADSVKGRFTISRDNAKNNVYLQMNSLKPEDTALYYCAKYPGISGYNYWGQGTQVTVSS", "high polyreactivity"],
  ["QVQLVESGGGLVQAGGSLRLSCAASGITFEYFDRGWYRQAPGKERELVAAISWSTDITYADSVKGRFTISRDNAKNTVYLQMNSLKPEDTAVYYCAASTYEYTSYDYWGQGTQVTVSS", "low polyreactivity"],
  ["QVLLQESGGGLVQAGGSLRLGCAASGTISPAYYMGRYHQAPGKEREFVAAITYGTNTYYADSVKGRFTISRDNAKNNVYLQMNSLKPEDTAVYYCSASAGYNGAHDYWGQGTQVTVSS", "low polyreactivity"],
  ["QVQLVESGGGLVQAGGSLRLSCAASGSTFWYNDMGWYRQAPGKETELVASISWSGGDTYYADSVKGRFTISRDNAKNTVYLQMNSLKPEDTAVYYCAKGNNWISRLMDYWGQGTQVTVSS", "low polyreactivity"],
  ["QVHLVESGRGLFQAGGSLRLSCAASGYTFGPYDMGGYRQAPGKERELVAGITLSGGITYYADSVKGRFTISRDNAKNTVYLQMNSLKPQDTAVSYCAAAFYVSYSVIYEYWGHGTQVTVSS", "high polyreactivity"],
  ["QVQLVESGGGLVQAGGSLRLSCAASGGTFVSYALGWSRQAPGKERELVAAITYSGGSTYYADSVKGRFTISRDTAKNTVYLQMNSLKPEDTAVYYCAADLGRNLLHTYYYWGQGTQVTVSS", "low polyreactivity"],
  ["QVQLVESGGGLVQAGVSLRLSCAASGIILRYYVMGWYRQAPGKERELVAAITSRGGSTYYADSVKGRFTISRDNAKNTVYLQMNSLKPEDTAVYYCAAGYRNVNTFDYWGQGTQVTVSS", "high polyreactivity"]
]}
